Test system: 786-0 renal
Assay: NCI tumour cell line growth inhibition, 48 h
# TGI annotations

The following compounds have reported results that may help.
N#CC(C#N)=C/C=C/c1c(Cl)cccc1Cl
3.35 µM
CC12CCC(=O)N1c1cncnc1N2 (stereo not drawn)
> 10 µM
O=C(O)C1(Cc2ccccc2)Cc2cc3c(cc2C1)CCC3
> 100 µM
O=c1cnnc(N/N=C/c2ccccc2O)[nH]1
> 100 µM

Ask | Supply recorded TGI for O=c1c2ccccc2c(/C=N\NC2=NCCN2)c2oc3ccccc3n12 here.
Reply | > 100 µM

Ask | Note down TGI recorded for CC(C)(C)OC(=O)N1C(OP(=O)(Oc2ccccc2)Oc2ccccc2)=CSc2ccccc21
Reply | > 100 µM

Ask | Tell me TGI reported for O=C1Cc2nc(CO)c(CO)c(CO)c2CO1
Reply | > 100 µM

Ask | Complete the entry with TGI for CCCCN1C(=O)c2c(Br)sc(Br)c2C1=O
Reply | > 100 µM

Ask | Please indicate TGI recorded for N#Cc1c(NC(=O)c2ccc(F)cc2)sc2c1CCCC2
Reply | > 25 µM

* * *

Tested on: K-562 leukemia
Assay: NCI tumour cell line growth inhibition, 48 h; in the data active = GI50 below about 0.43 µM; inactive = the rest
Hi there, use one of these labels in your reply, thanks! 1 (yes) = active, 0 (no) = inactive

Illustrative cases are given below, each with its answer.
CC1(C)N=C(N)N=C(N)N1c1ccc(Cl)cc1
0 (no)
C#CC(=O)Nc1cccc2c1cc(C)n2-c1nc2c(c(NCc3ccccc3)n1)CCCC2
1 (yes)
COc1cc(N2C(=O)[C@H](c3ccccc3)C2c2ccc(SC)cc2)cc(OC)c1OC (some centres undefined)
1 (yes)

Ask | So what was the verdict on COc1cccc(-c2cc(=O)c3cc(N4CCOCC4)ccc3[nH]2)c1 in this test?
Reply | 1 (yes)

Ask | Call for entry O=C(COc1cccc(/C=C2\CSc3ccc(Cl)cc3C2=O)c1)c1ccc(Cl)cc1 :
Reply | 0 (no)

Ask | Please state the recorded outcome for this molecule: NC1CCCCC1N.O=C1C=C/C(=C(/c2ccc(O)c(Br)c2)c2ccccc2S(=O)(=O)[O-])C=C1Br.O=C1C=C/C(=C(/c2ccc(O)c(Br)c2)c2ccccc2S(=O)(=O)[O-])C=C1Br.[Pt+4]
Reply | 0 (no)

Ask | Please share the test call associated with Cc1ccc2cccc(OC(=O)Nc3cccc(C(F)(F)F)c3)c2n1 .
Reply | 0 (no)

Ask | Could you check what this test reported for CCOC(=O)C1=C(C)NC(=O)NC1CN1C(=O)c2ccccc2C1=O (centres undefined) ?
Reply | 0 (no)

Ask | Assay result, entry NC(=S)N/N=C1\c2ccccc2-c2c(F)c(F)c(F)c(F)c21 — outcome?
Reply | 0 (no)

* * *

Tested on: CAKI-1 renal
Test: NCI tumour cell line growth inhibition, 48 h
Measured TGI accompanies every entry in the list below.

Study these solved cases before continuing.
C=C(C)[C@@H]1CCC2=C[C@H](C/C(C)=C\C3=CC(C)=C(O3)[C@H]1O)OC2=O
> 100 µM
CC(=O)O[C@H]1CC[C@H]2[C@@H]3CCC4=CC(=O)C=C[C@]4(O)[C@H]3CC[C@]12C
> 100 µM
CC(C)(c1ccccc1)c1cc(O)c(C(C)(C)c2ccccc2)cc1O
11.4 µM
CC(=O)Nc1ccc(-c2nnc(SCC(=O)Nc3cccc(Cl)c3)o2)cc1
33.2 µM
Nc1ccc(O)c2c1C(=O)c1c(N)ccc(O)c1C2=O
> 100 µM

Ask | Read off the recorded TGI for O=C(O)c1cc(=O)cc(C(=O)O)o1
Reply | > 100 µM

Ask | For the compound COC(=O)c1ncc2c(=O)[nH]c3ccccc3c2c1C(=O)OC , give its reported TGI.
Reply | > 100 µM

Ask | Output measured TGI for this item: CCC/C(Cl)=N/OC(=O)Nc1cc(C(F)(F)F)ccc1OC
Reply | 9.01 µM

Ask | Input CCOc1cn(C2OC(CO)C(O)C2O)c(=O)[nH]c1=O (stereo unspecified) , output reported TGI.
Reply | > 100 µM

* * *

System: MALME-3M melanoma
Assay: NCI tumour cell line growth inhibition, 48 h
experimentalReadout: TGI (µM)
Give just the number in µM; leave the unit off.

COC(=O)c1ccccc1CC1Cc2cc3c(cc2C1=O)CCC3 (stereo not given)
69.2
CN(C)CCNC(=O)c1cc(Cl)cc2cc3ccccc3nc12
14.9
COc1ccc2nc3c([N+](=O)[O-])ccc4c3c(c2c1)NCCN4CCN(C)C
1.56
C/C(N)=C/C(=O)c1[nH]c(C(=O)O)cc1C1CCN(Cc2ccccc2)C1=O (stereo not given)
50.2
COc1ccc(NC2=C(I)C(=O)c3ncccc3C2=O)cc1
2.44

Ask | Given COC1=C(C)C(=O)c2c(c(CCCl)c3n2CCC3OC(C)=O)C1=O (stereo not given) , respond with its TGI.
Reply | 0.414

Ask | Note down TGI recorded for CC(C)(C)C1CCC2c3c([nH]c4ccccc34)C3C(=O)N(c4ccccc4Cl)C(=O)C3C2C1 (stereo not given)
Reply | 37.1

* * *

Test system: BT-549 breast
Assay: NCI tumour cell line growth inhibition, 48 h
experimentalReadout: TGI (µM)
Just the number please, in µM, no unit attached.

Ask | Determine its reported TGI: N#CC1=C(N)NC(=S)NC12Nc1ccccc1S2 (stereo not given)
Reply | 53

Ask | Give the reported TGI for this molecule. COc1ccc(/C=C2\COc3ccc(O)c(O)c3C2=O)c(OC)c1OC
Reply | 12

Ask | For the molecule CC(=O)c1cc2c(s1)C(=O)c1sccc1C2=O , give its measured TGI value.
Reply | 0.0321

Ask | Return value of TGI for input CN(C)CCCSc1ccccc1NC1=C(Cl)C(=O)C(Nc2ccccc2SCCCN(C)C)=C(Cl)C1=O , no commentary.
Reply | 2.87

* * *

Tested on: SK-MEL-2 melanoma
Assay: NCI tumour cell line growth inhibition, 48 h
# Lookup of reported TGI keyed by entry

NS(=O)(=O)c1ccc(Nc2c3ccccc3nc3c(C(=O)N4CCN(CCO)CC4)cccc23)cc1
> 100 µM
Cc1ccc(/C=C(\NC(=O)c2ccccc2)c2nc3ccccc3[nH]2)cc1
80.1 µM

Ask | // fetch TGI given entry Cn1c2c(c3ccccc31)CCN(CCCCN1CCN(c3ccccc3)CC1)C2=O
Reply | > 77.6 µM

Ask | Query TGI for CC(=O)CC/C=C(\C)[C@H](O)[C@H](C)C(=O)O[C@H]1C[C@H](C)C=C2C=C[C@@]3(C)O[C@@H](O)CC(=O)[C@]3(C)[C@H]21
Reply | 1.91 µM

Ask | Identify the reported TGI for the following entry. O=C(Cc1nc2ccccc2o1)C(=O)Nc1cccc(Cl)c1
Reply | > 100 µM

Ask | Read off the recorded TGI for CON(C)C(=O)[C@H]1C[C@@]1(C)CO
Reply | > 100 µM

Ask | Tell me its TGI given CSc1ccc2c(cc1=O)[C@@H](NC(=O)c1ccc(Cl)cc1)CCc1cc(O)c(O)c(O)c1-2 as the entry.
Reply | > 100 µM

Ask | Tell me measured TGI for CN(Cc1cn(O)c2nc(=N)nc(N)c-2n1)c1ccc(C(=O)NC23CC4CC(CC(C4)C2)C3)cc1 please.
Reply | > 100 µM

Ask | Please list TGI recorded for the molecule OC[C@H]1NC[C@@H](O)[C@@H](O)[C@H]1O
Reply | > 100 µM

Ask | Consider the molecule Clc1cc(Cl)c(OCCCCCCN2CCNCC2)c(Cl)c1 . State its measured TGI.
Reply | 18.1 µM

* * *

Test system: U251 CNS
Experiment: NCI tumour cell line growth inhibition, 48 h
experimentalReadout: TGI

Here is how some molecules turned out for TGI.
COc1cccc(/C=C/C(=O)c2sc(C(N)=S)nc2C)c1O
> 100 µM
Nc1[nH]c(=S)nc2nc3c(c(-c4ccccc4)c12)CCCC3
> 100 µM
C=C1[C@H](OCC(C)C)[C@@H](O)[C@@H](OC(=O)c2cccnc2)C(C)(C)/C=C/[C@H](C)[C@H](OC(C)=O)[C@@]2(O)C[C@@](C)(OC(C)=O)[C@H](OC(=O)c3ccccc3)[C@@H]2[C@H]1OC(C)=O
> 5 µM
O=C(NCCC1CN(C(=O)OCc2ccccc2)c2ccccc21)OCc1ccccc1 (stereo not drawn)
> 100 µM
O=c1oc2ccccc2c(O)c1C(c1cnc2ccccc2c1)c1c(O)c2ccccc2oc1=O
> 100 µM

Ask | Give recorded TGI. CCOC(=O)CCC(C(=O)OCC)n1nc2ccc(Nc3c(C)[n+]([O-])c4cc(F)c(OCC)cc4[n+]3[O-])cc2n1 (stereo not drawn)
Reply | 62.7 µM

Ask | Supply recorded TGI for CC1=C(C)C(=O)O[C@@H]([C@](C)(O)[C@]2(O)CC[C@@]3(O)[C@@H]4C[C@H](O)[C@]5(O)[C@@H](O)C=CC(=O)[C@]5(C)[C@H]4CC[C@]23C)C1 here.
Reply | > 100 µM

Ask | Kindly indicate its recorded TGI. Item: O=c1cnnc(N/N=C/c2ccccc2O)[nH]1
Reply | > 100 µM
